FYI, the data here is from paper PMC4643906.

# study target: rat brain FAAH (Rattus norvegicus, UniProt P97612)
# Construct: from tissue; host or cells: rat brain (minus cerebellum), washed membrane pellet
# Sequence (P97612 whole entry): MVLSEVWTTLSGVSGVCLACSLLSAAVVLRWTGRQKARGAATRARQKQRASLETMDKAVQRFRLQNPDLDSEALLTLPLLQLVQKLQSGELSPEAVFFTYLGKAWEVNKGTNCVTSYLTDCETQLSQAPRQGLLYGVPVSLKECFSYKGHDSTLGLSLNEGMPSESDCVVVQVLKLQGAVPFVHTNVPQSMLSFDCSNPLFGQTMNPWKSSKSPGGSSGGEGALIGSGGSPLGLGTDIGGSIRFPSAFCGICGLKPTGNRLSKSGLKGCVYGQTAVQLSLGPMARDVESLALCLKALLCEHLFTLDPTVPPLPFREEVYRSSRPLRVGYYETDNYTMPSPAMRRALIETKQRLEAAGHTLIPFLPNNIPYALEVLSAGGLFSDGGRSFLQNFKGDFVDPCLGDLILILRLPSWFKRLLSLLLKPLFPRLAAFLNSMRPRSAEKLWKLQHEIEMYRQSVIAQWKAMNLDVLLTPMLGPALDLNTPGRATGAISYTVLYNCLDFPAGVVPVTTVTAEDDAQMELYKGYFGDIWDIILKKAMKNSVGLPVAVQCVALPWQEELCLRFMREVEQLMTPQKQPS
# protocol: Inhibition of [3H]AEA hydrolysis in rat brain homogenates
# Format: biochemical
# protocol conditions: rat brain homogenates, 0.5 μM [3H]AEA; read-out: IC50
measured metric: IC50 (nM)

Illustrative cases are given below, each with its answer.
compound: Cc1cccnc1NC(=O)[C@H](C)c1ccc(-c2ccccc2)c(F)c1 [(R)-Flu-AM1]
IC50 / nM: 740

compound: Cc1cccnc1NC(=O)[C@@H](C)c1ccc(-c2ccccc2)c(F)c1 [(S)-Flu-AM1]
IC50 / nM: 990

compound: Cc1cccnc1NC(=O)Cc1ccc(CC(C)C)cc1 [Ibufenac-AM1]
IC50 / nM: 68000

a = Cc1cccnc1NC(=O)[C@H](C)c1ccc(CC(C)C)cc1 [(R)-Ibu-AM5]
b = Cc1cccnc1NC(=O)C(C)c1ccc(CC(C)C)cc1 (racemic) [racemic Ibu-AM5]
c = Cc1cccnc1NC(=O)[C@@H](C)c1ccc(CC(C)C)cc1 [(S)-Ibu-AM5]
List these items ordered by IC50, big to small. Answer format: list of labels, ordered as asked.
a, b, c

---

# study target: rat brain FAAH (Rattus norvegicus)
# Construct: from tissue; host or cells: rat brain (minus cerebellum), washed membrane pellet
# protocol: Inhibition of [3H]AEA hydrolysis in rat brain homogenates
# Assay type: biochemical
# protocol conditions: linear mixed inhibition model fit, 0.5–4 μM [3H]AEA; read-out: Ki
measured metric: Ki (nM)

Guide cases for Ki, answers given:
molecule: Cc1cccnc1NC(=O)[C@@H](C)c1ccc(-c2ccccc2)c(F)c1 [(S)-Flu-AM1]
study target: rat brain FAAH (Rattus norvegicus)
Ki (nM): 790
--
molecule: Cc1cccnc1NC(=O)[C@H](C)c1ccc(-c2ccccc2)c(F)c1 [(R)-Flu-AM1]
study target: rat brain FAAH (Rattus norvegicus)
Ki (nM): 630

A = Cc1cccnc1NC(=O)[C@@H](C)c1ccc(CC(C)C)cc1 [(S)-Ibu-AM5]
B = Cc1cccnc1NC(=O)[C@H](C)c1ccc(CC(C)C)cc1 [(R)-Ibu-AM5]
Determine, for A and B , which has the greater value of Ki. Pick one; state its label.
B

---

# study target: rat wild-type FAAH (FAAH^wt) (Rattus norvegicus, UniProt P97612)
# Construct: expressed in transfected cells; host or cells: HeLa cells, pcDNA4 plasmid, lysate
# Sequence (P97612 whole entry): as above
# protocol: Inhibition of [3H]AEA hydrolysis in lysates of HeLa cells expressing wild-type FAAH
# Type: biochemical
# protocol conditions: FAAH^wt lysate 0.04 μg/assay, 18 h, 0.5 μM [3H]AEA; read-out: IC50
measured metric: pIC50
Recall that pIC50 is obtained by taking minus log10 of the concentration measured in molar.

State its pIC50 on rat wild-type FAAH (FAAH^wt) (Rattus norvegicus, UniProt P97612): Cc1cccnc1NC(=O)[C@H](C)c1ccc(-c2ccccc2)c(F)c1 [(R)-Flu-AM1]
5.08

---

# study target: rat brain FAAH (Rattus norvegicus)
# Construct: from tissue; host or cells: rat brain (minus cerebellum), washed membrane pellet
# protocol: Inhibition of [3H]AEA hydrolysis in rat brain homogenates
# Type: biochemical
# protocol conditions: linear mixed inhibition model fit, 0.5–4 μM [3H]AEA
# Method: Brains (minus cerebella) from adult Wistar or Sprague-Dawley rats (killed by decapitation) and from male B6CBAF1/J mice (killed by cervical dislocation), stored at -80°C, were thawed, weighed and homogenized in cold buffer (20 mM HEPES, 1 mM MgCl2 pH 7.0). Homogenates were centrifuged (35,000 g at 4°C for 20 min) before the pellet was resuspended in cold homogenization buffer. […] The protein concentration was determined according to [27] after which the samples were frozen in aliquots at -80°C. […]
measured metric: α

Worked cases, α given:
compound: Cc1cccnc1NC(=O)[C@H](C)c1ccc(CC(C)C)cc1 [(R)-Ibu-AM5]
study target: rat brain FAAH (Rattus norvegicus)
α: 3.1

compound: Cc1cccnc1NC(=O)[C@H](C)c1ccc(-c2ccccc2)c(F)c1 [(R)-Flu-AM1]
study target: rat brain FAAH (Rattus norvegicus)
α: 3.2

I = Cc1cccnc1NC(=O)[C@@H](C)c1ccc(CC(C)C)cc1 [(S)-Ibu-AM5]
II = Cc1cccnc1NC(=O)[C@@H](C)c1ccc(-c2ccccc2)c(F)c1 [(S)-Flu-AM1]
Lab notebook, comparison: I versus II , higher α goes to which? Answer with the label corresponding to your selection.
II
